Answer each item with its documented remaining target (mRNA or protein) (fraction of control).
Target: WWP1
Details: ASO; further: test concentration or dose not given here
These antisense oligonucleotides have a phosphorothioate backbone; sugars and methylation of C are not fully specified.
Answers are plain numbers.

# ordered.residues, test.result
measured = [
    ("AAATAACGGAAGTGAGCAAG", 0.88),
    ("GTTGTTGTTCTGGTGTTATG", 0.95),
    ("ATCTTTGTTCTCCTCAGTCA", 0.92),
]

Please give remaining target (mRNA or protein) (fraction of control), item by item, for the list that follows.
1. GTTGGTGCAAATGAGGATGA
2. TCAGACACTACTGGAGTACC
3. TGTTGTTATCTCTTATCCAG
4. TCCCAGACTGCTGCCGTACA
5. ATACATTGGGTTCAAAACTT
6. TGTCTTGATTTGGCTGCTTC
7. TAAGCGCCTCCTCAAGTCAT
8. TATGAAAGATGGTCTGGATT

(A)
[0.95, 0.76, 0.92, 0.47, 0.92, 0.91, 0.86, 0.99]

----------
Answer each item with its documented remaining target (mRNA or protein) (fraction of control).
Target: RAF1
Conditions: ASO
These antisense oligonucleotides have a phosphorothioate backbone; sugars and methylation of C are not fully specified.
Numbers only.

# ordered.residues, target.of.assay, test.result
rows = [
    ("CTGGCTTCTCCTCCTCCCCT", "RAF1", 0.95),
]

Please give remaining target (mRNA or protein) (fraction of control), item by item, for the list that follows.
1. TTCTCCTCCTCCCCTGGCAG
2. TTAAAATAACATAATTGAGG
3. CCCTGTATGTGCTCCATTGA
4. TTGAGCATGGGGAATGTGGG
5. CGCTCCTCCTCCCCGCGGCG

(A)
[0.8, 0.93, 0.38, 0.63, 0.35]

----------
Answer each item with its documented remaining target (mRNA or protein) (fraction of control).
Target: SRA1
Settings: ASO
These antisense oligonucleotides have a phosphorothioate backbone; sugars and methylation of C are not fully specified.
One number for each entry.

# ordered.residues, test.result
data = [
    ("AACCGAGGATTATGAAGC", 0.57),
    ("TATGAAGCCTGCTGGAAG", 0.64),
]

Please give remaining target (mRNA or protein) (fraction of control), item by item, for the list that follows.
1. GGCGTCGGCTGATGTCAT
2. TCAGTCACATGGTCAACC

(A)
1. 0.42
2. 0.5

Please give remaining target (mRNA or protein) (fraction of control), item by item, for the list that follows.
1. CTGAAAACAGACTCCTCT
2. CTTCATTGGCTGCCTCCT
3. TTCCTTGTTGCCTGCGGA
4. TGTGTGGCCACGGCAGTC

(A)
0.56
0.2
0.72
0.47

Please give remaining target (mRNA or protein) (fraction of control), item by item, for the list that follows.
1. GGCACCGGAAGGAGATGG
2. GAGGGAGCGGTGGATGTC
3. CCACCGGTGGCTTGAAAG
4. TTCCTGCAGCAGTGCCAG

(A)
1: 0.43; 2: 0.48; 3: 0.85; 4: 0.45

----------
Answer each item with its documented remaining target (mRNA or protein) (fraction of control).
Target: RELA
Details: ASO
These antisense oligonucleotides have a phosphorothioate backbone; sugars and methylation of C are not fully specified.
One number for each entry.

# ordered.residues, test.result
measured = [
    ("AGCTGAGCTGCGGGAAGG", 0.86),
    ("GTCTGTGCTGTTGCCAAG", 0.87),
    ("TGCCCAGAAGGAAACACC", 0.66),
    ("GTTGTTGGTCTGGATGCG", 0.63),
    ("TTCTGCACCTTGTCACAC", 0.37),
    ("TCACTAGGCGAGTTATAG", 0.53),
]

Please give remaining target (mRNA or protein) (fraction of control), item by item, for the list that follows.
1. CAATGTCCTCTTTCTGCA
2. CCTGGTCCTGTGTAGCCA
3. CTGCCGGGAAGATGAGGG
4. GCAGTCCTTTCCTACAAG
5. AAAGGAGCCTCGGGCCTC
6. TAGCCATTGATCTTGATG

(A)
1. 0.78
2. 0.78
3. 0.84
4. 0.95
5. 0.37
6. 0.78

(Q) Look up remaining target (mRNA or protein) (fraction of control) with RELA for this sequence: `ACCTGGAAGCAGAGCCGC`
(A) 0.31
